# assayedTarget: Amine oxidase [flavin-containing] A (Homo sapiens, UniProt P21397)
# Sequence (P21397 whole entry): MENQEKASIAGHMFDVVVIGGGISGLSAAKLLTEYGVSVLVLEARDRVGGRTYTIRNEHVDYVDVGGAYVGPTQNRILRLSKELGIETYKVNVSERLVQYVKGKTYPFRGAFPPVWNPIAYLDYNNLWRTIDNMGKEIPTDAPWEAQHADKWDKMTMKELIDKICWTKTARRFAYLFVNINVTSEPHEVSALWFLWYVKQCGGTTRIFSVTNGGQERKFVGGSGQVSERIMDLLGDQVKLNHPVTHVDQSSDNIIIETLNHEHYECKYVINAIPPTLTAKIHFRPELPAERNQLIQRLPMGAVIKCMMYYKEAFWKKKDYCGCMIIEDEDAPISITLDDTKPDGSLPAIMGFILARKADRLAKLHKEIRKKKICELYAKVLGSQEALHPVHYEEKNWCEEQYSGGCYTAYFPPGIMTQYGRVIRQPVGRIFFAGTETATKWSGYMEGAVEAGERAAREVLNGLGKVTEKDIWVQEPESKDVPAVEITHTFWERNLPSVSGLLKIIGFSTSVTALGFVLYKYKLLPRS
# protocol: Inhibition of human recombinant MAOA using p-tyramine as substrate preincubated for 120 mins followed by substrate addition measured for 1 hr by horse-radish peroxidase/amplex red-based fluorometric method
recordedMetric: IC50 (nM)
State just the number; it will be interpreted in nM.

Please state recorded IC50 (tested on Amine oxidase [flavin-containing] A (Homo sapiens, UniProt P21397)) of C#CCN(Cc1ccc2cccc(O)c2n1)C(C#N)CCC1CCN(Cc2ccccc2)CC1 (stereo unspecified)
1900

====

# assayedTarget: Amine oxidase [flavin-containing] B (Homo sapiens)
# Sequence (P27338 whole entry): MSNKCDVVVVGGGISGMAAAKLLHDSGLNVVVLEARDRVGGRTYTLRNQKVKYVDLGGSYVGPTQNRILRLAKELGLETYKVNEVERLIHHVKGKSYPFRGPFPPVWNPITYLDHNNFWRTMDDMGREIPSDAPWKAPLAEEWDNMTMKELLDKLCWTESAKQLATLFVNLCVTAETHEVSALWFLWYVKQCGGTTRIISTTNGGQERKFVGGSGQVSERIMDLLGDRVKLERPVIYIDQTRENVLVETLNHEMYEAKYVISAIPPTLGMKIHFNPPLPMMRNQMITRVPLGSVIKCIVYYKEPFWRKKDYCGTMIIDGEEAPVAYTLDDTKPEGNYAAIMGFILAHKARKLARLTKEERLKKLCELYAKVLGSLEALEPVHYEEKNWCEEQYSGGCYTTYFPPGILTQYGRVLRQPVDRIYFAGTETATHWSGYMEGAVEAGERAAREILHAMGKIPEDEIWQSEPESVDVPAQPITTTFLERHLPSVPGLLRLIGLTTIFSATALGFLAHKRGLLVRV
# protocol: Inhibition of human recombinant MAOB using p-tyramine as substrate preincubated for 30 mins followed by substrate addition measured for 1 hr by horse-radish peroxidase/amplex red-based fluorometric method
Kindly state IC50 for each of the entries shown.

Field request: IC50 | item: C#CCN(CCC1CCN(Cc2ccccc2)CC1)Cc1ccc2cccc(O)c2n1
> 100 µM

Can you share its IC50? I mean this compound: C#CCN(Cc1ccc2cccc(O)c2n1)C(C#N)CCC1CCN(Cc2ccccc2)CC1 (configuration not stated)
> 100 µM

Which IC50 is reported for this compound? C#CCN(Cc1ccc2cccc(O)c2n1)C(C#N)CC1CCN(Cc2ccccc2)CC1 (configuration not stated)
> 100 µM

Quick one: IC50 for C#CCN(CCCC1CCN(Cc2ccccc2)CC1)Cc1ccc2cccc(O)c2n1 ?
> 100 µM

Report IC50 for C#CCN(Cc1ccc(O)c2ncccc12)C(C#N)CCC1CCN(Cc2ccccc2)CC1 (configuration not stated) please.
11.8 µM

Request the reported IC50 associated with C#CCN(Cc1ccc2cccc(O)c2n1)C(C#N)C1CCN(Cc2ccccc2)CC1 (configuration not stated)
> 100 µM

Which value of IC50 has been reported for C#CCN(Cc1ccc2cccc(O)c2n1)CC1CCN(Cc2ccccc2)CC1 in the records?
> 100 µM

====

# assayedTarget: Amine oxidase [flavin-containing] A (Homo sapiens)
# protocol: Inhibition of human recombinant MAOA using p-tyramine as substrate preincubated for 240 mins followed by substrate addition measured for 1 hr by horse-radish peroxidase/amplex red-based fluorometric method
recordedMetric: pIC50
Lab note: report pIC50 as minus log10 of the concentration in molar units, number only.

Record request: pIC50 value, item C#CCN(Cc1ccc2cccc(O)c2n1)C(C#N)CCC1CCN(Cc2ccccc2)CC1 (stereo unspecified)
5.96
